The values you see were collected from patent US12440473B2.

Target: OPRM1 (Homo sapiens)
Sequence (P35372 whole entry): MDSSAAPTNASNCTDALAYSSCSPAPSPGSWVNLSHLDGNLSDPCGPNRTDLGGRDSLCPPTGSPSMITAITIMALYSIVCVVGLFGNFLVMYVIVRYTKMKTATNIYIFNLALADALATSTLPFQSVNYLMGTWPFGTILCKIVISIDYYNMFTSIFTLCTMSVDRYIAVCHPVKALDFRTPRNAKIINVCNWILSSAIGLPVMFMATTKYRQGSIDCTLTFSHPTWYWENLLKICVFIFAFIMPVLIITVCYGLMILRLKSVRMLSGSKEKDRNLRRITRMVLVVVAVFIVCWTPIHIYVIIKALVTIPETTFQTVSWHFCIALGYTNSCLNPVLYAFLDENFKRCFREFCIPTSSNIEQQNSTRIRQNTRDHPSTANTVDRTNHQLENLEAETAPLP
Conditions: read-out: OPRM1 antagonist IC50; ten-point concentration curves
readout_name: IC50 (µM)
I only need the number, in µM, no unit after it.

The value of IC50 measured for the compound "CCCCCCCCCCCCCCc1nnn[nH]1" turned out to be 3.9

====

Target: full length human PPAR-α (Homo sapiens, UniProt Q07869)
Construct: host or cells: Chinese hamster ovary (CHO) cell lines
Sequence (Q07869 1-468): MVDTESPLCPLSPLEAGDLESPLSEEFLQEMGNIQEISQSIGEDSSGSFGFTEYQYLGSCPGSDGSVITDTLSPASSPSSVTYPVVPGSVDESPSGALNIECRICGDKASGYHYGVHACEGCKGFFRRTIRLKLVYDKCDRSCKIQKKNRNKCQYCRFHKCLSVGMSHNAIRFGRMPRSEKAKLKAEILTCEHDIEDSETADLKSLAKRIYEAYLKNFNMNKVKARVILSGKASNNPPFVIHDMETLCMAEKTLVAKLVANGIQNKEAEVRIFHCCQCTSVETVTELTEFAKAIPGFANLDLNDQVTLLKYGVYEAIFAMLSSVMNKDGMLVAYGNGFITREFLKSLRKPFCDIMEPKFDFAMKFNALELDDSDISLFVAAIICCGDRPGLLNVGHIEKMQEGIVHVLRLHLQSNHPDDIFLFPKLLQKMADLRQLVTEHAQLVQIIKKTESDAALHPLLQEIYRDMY
Experiment: PathHunter NHR Protein Interaction assay, PPAR-α agonist activity (CHO cells)
Assay type: cell-based
Details: CHO; PPAR-alpha; free fatty acid form; normalized to control compound (GW7647); read-out: Maximum Response
readout_name: Emax

Here is how some molecules turned out for Emax.
INSERT INTO measurements (molecule, result) VALUES
  ('CCCCCCCCCCCCCCCC(=O)O [C16:0, palmitic acid, reference compound]', '56.1%'),
  ('CCCCCCCCCCCCCCC(=O)O', '65.8%'),
  ('CCCCCCCCCCCCCCCCC(=O)O', '16.7%');

Note: attention shifts to another entry.
The value of Emax measured for the molecule CCCCCCCCCCCCCC(=O)O [C14:0, myristic acid, reference compound] turned out to be 74.1%

====

Target: full length human PPAR-δ (Homo sapiens, UniProt Q03181)
Construct: host or cells: Chinese hamster ovary (CHO) cell lines
Sequence (Q03181 whole entry): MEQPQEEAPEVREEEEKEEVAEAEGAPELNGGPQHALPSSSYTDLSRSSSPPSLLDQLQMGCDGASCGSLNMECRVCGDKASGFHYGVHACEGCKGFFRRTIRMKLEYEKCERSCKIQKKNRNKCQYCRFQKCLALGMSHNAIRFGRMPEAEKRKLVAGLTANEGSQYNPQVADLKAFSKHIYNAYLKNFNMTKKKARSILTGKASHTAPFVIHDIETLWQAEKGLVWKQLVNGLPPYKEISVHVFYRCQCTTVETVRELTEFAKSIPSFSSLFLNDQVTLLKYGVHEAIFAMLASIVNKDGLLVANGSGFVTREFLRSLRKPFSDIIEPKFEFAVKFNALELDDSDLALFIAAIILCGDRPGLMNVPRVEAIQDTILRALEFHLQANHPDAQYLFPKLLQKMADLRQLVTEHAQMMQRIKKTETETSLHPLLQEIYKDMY
Experiment: PathHunter NHR Protein Interaction assay, PPAR-δ agonist activity (CHO cells)
Type: cell-based
Conditions: text of Example 3; read-out: PPAR-δ agonist EC50
readout_name: EC50 (nM)
I only need the number, in nM, no unit after it.

The value of EC50 measured for the compound CCCCCCCCCCCCCC(CC)C(=O)O (stereo not shown) [2-ethyl-C15:0, 2-ethylpentadecanoic acid] turned out to be 28

====

Target: full length human PPAR-α (Homo sapiens, UniProt Q07869)
Assay: PathHunter NHR Protein Interaction assay, PPAR-α agonist activity (CHO cells)
Conditions: Table 5; read-out: Cell-Based PPAR Agonist Activity Half Maximal Effective Concentration (EC50) PPAR-α
Recorded measurements of EC50, one per entry
I only need the number, in µM, no unit after it.

INSERT INTO measurements (molecule, system_under_test, number) VALUES
  ('CCCCCCCCCCCCCCc1nnn[nH]1', 'full length human PPAR-α (Homo sapiens, UniProt Q07869)', 2.6);

Note: attention shifts to another entry.
The value of EC50 measured for the molecule CCCCCCCCCCCCCC(=O)O [C14:0, myristic acid, reference compound] turned out to be 8.4
